- TARGET_OR_TEST_SYSTEM: 血浆激肽释放酶(plasma kallikrein,PK) (human, UniProt P03952 20-638)
- Sequence (P03952 20-638 limits assumed): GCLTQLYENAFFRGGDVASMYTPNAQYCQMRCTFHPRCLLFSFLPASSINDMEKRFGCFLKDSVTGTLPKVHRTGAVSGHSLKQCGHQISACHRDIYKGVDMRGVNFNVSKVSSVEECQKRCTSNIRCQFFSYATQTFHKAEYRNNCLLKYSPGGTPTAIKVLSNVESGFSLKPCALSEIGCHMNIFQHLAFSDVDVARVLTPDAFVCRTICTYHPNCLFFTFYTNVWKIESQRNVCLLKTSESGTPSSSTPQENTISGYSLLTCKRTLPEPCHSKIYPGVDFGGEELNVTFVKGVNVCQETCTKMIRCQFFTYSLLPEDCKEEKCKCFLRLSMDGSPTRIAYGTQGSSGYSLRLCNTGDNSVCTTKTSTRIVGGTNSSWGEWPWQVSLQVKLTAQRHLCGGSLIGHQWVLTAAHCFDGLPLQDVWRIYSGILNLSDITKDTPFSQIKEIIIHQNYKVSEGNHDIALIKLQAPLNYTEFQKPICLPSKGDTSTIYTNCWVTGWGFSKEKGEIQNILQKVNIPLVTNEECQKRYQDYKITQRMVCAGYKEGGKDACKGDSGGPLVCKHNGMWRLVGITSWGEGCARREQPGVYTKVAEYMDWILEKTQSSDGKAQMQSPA
- PROTOCOL_DETAILS: cell-based or functional assay
OBSERVED_PROPERTY: IC50(nM), PK enzyme activity on H-Pro-Phe-Arg-AMC (fluorescence)
# unit: nM | format: bare number

BINDER	UNIT_ABBREV	RESULT
KH02 (antibody, human IgG4 S228P, kappa, V domains shown) VH: EVQLQQSGAELVKPGASVRLSCTASGFNIKDTYIFWVKQRPKQGLEWIGRIDPENDNTKYDPKIQGKATLTADTSSNTAYLQLSSLTSEDSAIYYCAKGGGLFAYWGQGTLVSVSA VL: DIQMTQSPSSLSTSLGGKVTITCEASHDINNYIAWYQHKPGKGPRLLIHYTSTLQSGIPSRFSGSGSGKDYSFSISNLEPEDIATYYCLQYDNLFTFGGGTKLEIKR	nM	0.235

Field: next binder
Requested field: IC50(nM), PK enzyme activity on H-Pro-Phe-Arg-AMC (fluorescence). Item: KH19 (antibody, V domains shown) VH: EVQLQQSGAEVVRPGASVKLSCKPSGFNIKDYYMFWLRQRPDQGLEWIGRIDPENGNTVYDPRFQDRASITAVTSSNTAFLQVNSLTSEDTAVYYCARAGSIPSYWGQGTLVTVSA VL: DIQMTQSPSSLSASLGDKITITCKASQDINKYIAWYQHKPGKGPRLLIHYTSSLHQDIPSRFSGSGSGRDYSFSISNLEPEDFAIYYCLQYDDLWTFGGGTKVEIK 0.87
